The measured values listed here are drawn from patent US12686680B2.

# test description: Solubility determination of solid forms of Compound 1 in solvents (Example 52)
# Assay type: physicochemical
# test parameters: 50 mM CB pH 4
Structures can show the parent of a compound that is named as a salt.
reported property: Measured pH

- compound: "CCCN(Cc1ccc(-c2csc(N(C)C)n2)cc1)c1cc(C)nc2c(-c3cnc(N(C)C)cc3C)c(C)nn12 [Compound 1-1 (FB)]"
  result: "pH 4.1"
- compound: "CCCN(Cc1ccc(-c2csc(N(C)C)n2)cc1)c1cc(C)nc2c(-c3cnc(N(C)C)cc3C)c(C)nn12 [Compound 1-4 (Maleate)]"
  result: "pH 3.9"
- compound: "CCCN(Cc1ccc(-c2csc(N(C)C)n2)cc1)c1cc(C)nc2c(-c3cnc(N(C)C)cc3C)c(C)nn12 [Compound 1-2 (FB)]"
  result: "pH 4.1"
- compound: "CCCN(Cc1ccc(-c2csc(N(C)C)n2)cc1)c1cc(C)nc2c(-c3cnc(N(C)C)cc3C)c(C)nn12 [Compound 1-3 (HCl)]"
  result: "pH 3.9"
